Entry source: patent US20240002497A1

# Target: T1, huNav1.7α + β1 (HEKa/β1) (human, UniProt Q15858 1-1988; Q07699 19-218)
# T1 construct: also called HEKa/β1 huNav1.7α
# Assay remarks: binding FACS, HEKa/β1 cells
Record form. Attribute: pEC50. Fill in for each entry.
// returns pEC50 (minus log10 of molar concentration), number only

The measured pEC50 associated with F010301618 (VHH, Y102H vs F0103362B08 (Kabat)) VHH: EVQLVESGGGLVQAGGSLRLSCAASVRPFSTSAMGWFRQAPEKEREAVAGILWNGIVTYYADSVKGRFTISRDNAKNEVYLQMNKLKPEDTAVYYCALDRDYGGRSFSAYEYEHWGQGTLVTVSS reads 7.41

Record summary for F010301589 (VHH, I55P vs F0103362B08 (Kabat)) VHH: EVQLVESGGGLVQAGGSLRLSCAASVRPFSTSAMGWFRQAPEKEREAVAGILWNGPVTYYADSVKGRFTISRDNAKNEVYLQMNKLKPEDTAVYYCALDRDYGGRSFSAYEYEYWGQGTLVTVSS : reported pEC50 = 7.39

pEC50 recorded for this binder, F010301604 (VHH, R100aQ vs F0103362B08 (Kabat)) VHH: EVQLVESGGGLVQAGGSLRLSCAASVRPFSTSAMGWFRQAPEKEREAVAGILWNGIVTYYADSVKGRFTISRDNAKNEVYLQMNKLKPEDTAVYYCALDRDYGGQSFSAYEYEYWGQGTLVTVSS , is 7.28

Just so you know, measured pEC50 for F010301593 (VHH, R96K vs F0103362B08 (Kabat)) VHH: EVQLVESGGGLVQAGGSLRLSCAASVRPFSTSAMGWFRQAPEKEREAVAGILWNGIVTYYADSVKGRFTISRDNAKNEVYLQMNKLKPEDTAVYYCALDKDYGGRSFSAYEYEYWGQGTLVTVSS came out at 7.40

What the record says about F010301607 (VHH, Y100fA vs F0103362B08 (Kabat)) VHH: EVQLVESGGGLVQAGGSLRLSCAASVRPFSTSAMGWFRQAPEKEREAVAGILWNGIVTYYADSVKGRFTISRDNAKNEVYLQMNKLKPEDTAVYYCALDRDYGGRSFSAAEYEYWGQGTLVTVSS : pEC50 is 7.52

Briefly, pEC50 measured for F010301598 (VHH, G99Q vs F0103362B08 (Kabat)) VHH: EVQLVESGGGLVQAGGSLRLSCAASVRPFSTSAMGWFRQAPEKEREAVAGILWNGIVTYYADSVKGRFTISRDNAKNEVYLQMNKLKPEDTAVYYCALDRDYQGRSFSAYEYEYWGQGTLVTVSS : 7.54

pEC50 reading for F010301594 (VHH, R100aK vs F0103362B08 (Kabat)) VHH: EVQLVESGGGLVQAGGSLRLSCAASVRPFSTSAMGWFRQAPEKEREAVAGILWNGIVTYYADSVKGRFTISRDNAKNEVYLQMNKLKPEDTAVYYCALDRDYGGKSFSAYEYEYWGQGTLVTVSS : 7.54

pEC50 reading for F010301609 (VHH, Y100fQ vs F0103362B08 (Kabat)) VHH: EVQLVESGGGLVQAGGSLRLSCAASVRPFSTSAMGWFRQAPEKEREAVAGILWNGIVTYYADSVKGRFTISRDNAKNEVYLQMNKLKPEDTAVYYCALDRDYGGRSFSAQEYEYWGQGTLVTVSS : 7.43

Briefly, pEC50 measured for F010301661 (VHH) VHH: EVQLVESGGGLVQPGGSLRLSCAASVRPFSTSAMGWFRQAPEKEREAVAAILWNGIVTYYADSVKGRFTISRDNAKNEVYLQMNKLKPEDTAVYYCALDRDYGGRSFSAKEYEYWGQGTLVTVSS : 7.74

For this binder ( F010301662 (VHH) VHH: EVQLVESGGGLVQPGGSLRLSCAASVRPFSTSAMGWFRQAPEKEREAVAGILWNGIVTYYADSVKGRFTISRDNAKNEVYLQMNKLKPEDTAVYYCALDRAYQGRSFSAYEYEYWGQGTLVTVSS ), measured pEC50 is 7.77

Short answer for F010301664 (VHH) VHH: EVQLVESGGGLVQPGGSLRLSCAASVRPFSTSAMGWFRQAPEKEREAVAGILWNGIVTYYADSVKGRFTISRDNAKNEVYLQMNKLKPEDTAVYYCALDRDYQGRSFSAKEYEYWGQGTLVTVSS : pEC50 was 7.74

// pEC50 lookup, binder = F010301592 (VHH, R100aS vs F0103362B08 (Kabat)) VHH: EVQLVESGGGLVQAGGSLRLSCAASVRPFSTSAMGWFRQAPEKEREAVAGILWNGIVTYYADSVKGRFTISRDNAKNEVYLQMNKLKPEDTAVYYCALDRDYGGSSFSAYEYEYWGQGTLVTVSS , result: 7.17

The binder listed as F010301596 (VHH, G99A vs F0103362B08 (Kabat)) VHH: EVQLVESGGGLVQAGGSLRLSCAASVRPFSTSAMGWFRQAPEKEREAVAGILWNGIVTYYADSVKGRFTISRDNAKNEVYLQMNKLKPEDTAVYYCALDRDYAGRSFSAYEYEYWGQGTLVTVSS shows pEC50 equal to 7.30

pEC50 recorded for this binder, F010301627 (VHH, G50A vs F0103362B08 (Kabat)) VHH: EVQLVESGGGLVQAGGSLRLSCAASVRPFSTSAMGWFRQAPEKEREAVAAILWNGIVTYYADSVKGRFTISRDNAKNEVYLQMNKLKPEDTAVYYCALDRDYGGRSFSAYEYEYWGQGTLVTVSS , is 7.64

Given item F010301622 (VHH, Y100fD vs F0103362B08 (Kabat)) VHH: EVQLVESGGGLVQAGGSLRLSCAASVRPFSTSAMGWFRQAPEKEREAVAGILWNGIVTYYADSVKGRFTISRDNAKNEVYLQMNKLKPEDTAVYYCALDRDYGGRSFSADEYEYWGQGTLVTVSS , the value recorded as its pEC50 is 7.40
